Reference source: patent US7601336B2

# Assay Protocol: Aerodynamic particle size distribution by Andersen Cascade Impactor (ACI), ten cumulative actuations, drug on plates by HPLC
# Type: physicochemical
# Test Settings: Flunisolide 50 mg/10 ml; ethanol 15.0 ± 0.1%; HFA 134a; menthol 0% (w/w); glycerol 0% (w/w); actuator orifice 0.30 mm

Compound	MMAD, µm
CC1(C)O[C@@H]2C[C@H]3[C@@H]4C[C@H](F)C5=CC(=O)C=C[C@]5(C)[C@H]4[C@@H](O)C[C@]3(C)[C@]2(C(=O)CO)O1 [Flunisolide]	1.8
